Assay: Mouse Liver Microsomes stability
Format: in vitro ADME
Conditions: Mouse Liver Microsomes (FIG. 5); read-out: t1/2 in Mouse Liver Microsomes
endpointName: half-life

Q: Report half-life, nothing else, for this compound: Cc1ccc(/C(=N/O)NCCCN(C)CCCN/C(=N\O)c2ccc(C)cc2)cc1
A: 13 min

----------
Test: Maximum tolerated dose in mice, IP
Settings: mouse, in vivo, BALB/c strain, 5 consecutive days, two days break, another 5 days
Provide the reported MTD of each item.
The reply should contain only the number, in mg/kg.

Q: State, in one line, measured MTD of Cc1ccc(/C(=N/O)NCCCN(C)CCCN/C(=N\O)c2ccc(C)cc2)cc1
A: 0.78

Q: Tell us which MTD value is on record for Cc1ccc(/C(=N/O)NCCCN/C(=N\O)c2ccc(C)cc2)cc1
A: 0.26

Q: Identify the reported MTD for the following entry. Cc1ccc(/C(=N/O)NCCN/C(=N\O)c2ccc(C)cc2)cc1
A: 1.56

----------
Consider the following compounds; for each one, report its GI50.

Q: Provide GI50, recorded with SK-OV-3 (ovarian adenocarcinoma), of Cc1ccc(/C(=N/O)NCCCN/C(=N\O)c2ccc(C)cc2)cc1
A: > 500 µM

Q: # return GI50 of Cc1ccc(/C(=N/O)NCCCCN/C(=N\O)c2ccc(C)cc2)cc1 (system: SK-OV-3 (ovarian adenocarcinoma))
A: > 500 µM

Q: For SK-OV-3 (ovarian adenocarcinoma), give the measured GI50 of the entry C=C(C)[C@@H](CC=C(C)C)C[C@@]12C[C@@H](CC=C(C)C)C(C)(C)[C@@](CC=C(C)C)(C(=O)C(C(=O)c3ccc(O)c(O)c3)=C1O)C2=O [Garcinol, garcinol, reference compound]
A: 43 µM

Q: Name the value of GI50 reported for Cc1ccc(/C(=N/O)NCCCN(C)CCCN/C(=N\O)c2ccc(C)cc2)cc1 when tested on SK-OV-3 (ovarian adenocarcinoma).
A: > 500 µM

Q: // fetch GI50; item: Cc1ccc(/C(=N/O)NCCN/C(=N\O)c2ccc(C)cc2)cc1 ; system: SK-OV-3 (ovarian adenocarcinoma)
A: > 500 µM
